substrate: O=c1[nH]cc(CO)c(=O)[nH]1; assay: purified protein; conditions: 1 mM α-KG, 0.2 mM (NH4)2Fe(SO4)2, 0.2 mM ascorbic acid, 100 mM Hepes pH 7.5, 25 °C
readout: kcat/Km (M⁻¹ s⁻¹)
Field: numeric (M⁻¹ s⁻¹). Do not append units.

Q: # return recorded kcat/Km for input NcT7H (thymine-7-hydroxylase) (Neurospora crassa OR74A; N87A) (protein, full length (residues 1-333), C-terminal His6-tag, pET-28a, expressed in E. coli BL21(DE3); Ni-NTA and gel filtration, tag removal not mentioned) MEKAAVNEDGLVIPLIDFSKFLEGDETLKLETAKAILHGFQTAGFIYLKNIPIQPDFREHVFNTSAKFFKLPKEKKLEVGWTTPEAARGYSAPGREKVTQLTDPAEIEKIRSAAPDIKESYEIGREDEPGHPNPWPAEQDDLVGFKSTMNNFFDQCKALHIEVMRAIAVGMGIDANYFDSFVDVGDNILRLLHYPAVKSEVFKINPGQVRAGEHTDYGSITLLFQDSRGGLQVKSPNGQFIDATPIENTVVVNAGDLLARWSNDTIKSTVHRVVEPPKQEDVHPPRYSIAYFCNPNHKSYIEAIPGTYAAESERKYEGINSGKYLVQRLAATY
Result: 83.3
